- test-name: Primary qHTS for inhibitors of nuclear receptor binding SET domain protein 2 (NSD2) in an isogenic RCH-ACV NSD2 p.E1099K mutant (9B) (AID 1645876); also: nearly all actives have a fitted effect of over 70% in size
- study-conditions: RCH-ACV (leukaemia line) NSD2 E1099K (9B) viability, CellTiter-Glo, 72 h; series mostly up to 44.9 µM
Results filed as inconclusive are left out. The source made the active and inactive calls. Calls follow the shape of the dose curve; as a rule, active = well fitted inhibition curve with a large enough effect; inconclusive = small, poorly fitted or top-dose-only effect; inactive = flat fitted curve, though single readings scatter.
Reply using exactly one outcome from active, inactive

Look up the recorded call for `FC(F)(F)c1ccc(Nc2nc3ccc(Oc4ccnc(-c5ncc(C(F)(F)F)[nH]5)c4)cc3[nH]2)cc1` in this test.
active

Hi team, can someone confirm the assay call for `O=C(Nc1ccc(Oc2ccnc3[nH]ccc23)c(F)c1)c1cccn(-c2ccc(F)cc2)c1=O` ?
active

Assay outcome for `Nc1nc(=O)n([C@H]2C[C@H](O)[C@@H](CO)O2)cc1F` : what was it?
active

Could you kindly confirm the outcome this assay logged for COc1ccc2c(c1OC)C(=O)OC2[C@H]1c2c(cc3c(c2OC)OCO3)CCN1C (stereo partly drawn) ?
active

Hello, I am checking results. What call was entered for `c1cc(N[C@@H]2CCNC2)nc(-c2cnc3ccc(-c4cn[nH]c4)cn23)c1` ?
active

For `COc1cc(CCc2cc(NC(=O)c3ccc(N4C[C@@H](C)N[C@@H](C)C4)cc3)n[nH]2)cc(OC)c1` , what call appears in the results of this test?
active

For this molecule, state the assay outcome: `NC(=NCCCCCCN=C(N)N=C(N)Nc1ccc(Cl)cc1)N=C(N)Nc1ccc(Cl)cc1`
active

Outcome logged for COc1cc(C)c(Sc2cnc(NC(=O)c3ccc(CNC(C)C(C)(C)C)cc3)s2)cc1C(=O)N1CCN(C(C)=O)CC1 (stereo not drawn) in this assay:
active

What call does the record list for `COc1cc(C(C)C)c(Oc2cnc(NC(CO)CO)nc2N)cc1I` ?
inactive

I would be grateful if you could indicate the recorded call for `Oc1ccc([C@@H]2Oc3ccc(O)cc3[C@@H]3CCC[C@@H]32)cc1` .
active

Recorded call for CC(O)(C#Cc1ccc2c(c1)N(c1nc(N)ncc1Cl)CC2)c1nccs1 (stereo not drawn) ?
active

What was the test verdict on `NC(=O)c1cccc(-c2cccc(OC(=O)NC3CCCCC3)c2)c1` ?
inactive

Hi, sorry to bother you, what did the test record for Cc1noc(-c2ccc(CSCCC(=O)O)cc2)c1NC(=O)OC(C)c1ccccc1Cl (stereo not drawn) ?
inactive

Recorded test call requested for `C=Cc1c(C)c2cc3nc(cc4[nH]c(cc5nc(cc1[nH]2)C(C)=C5CCC(=O)O)c(CCC(=O)OC)c4C)[C@@]1(C)C3=CC=C(C(=O)OC)[C@H]1C(=O)OC`
inactive

Lab log entry: `C[C@H](O)[C@@H]1C(=O)N2C(C(=O)O)=C(S[C@@H]3CN[C@H](CNS(N)(=O)=O)C3)[C@@H](C)[C@@H]12` — outcome as called in the assay?
inactive

Identify the outcome logged in this assay for the molecule shown: `CN(C)c1ccc2cc(C(=O)N[C@@H](CCCN=C(N)CCl)C(=O)NCc3ccccc3)ccc2c1`
inactive

Could you check what this test reported for C[C@@H]1CC[C@@]2(OC1)OC1CC3C4CC=C5CC(O)CCC5(C)C4CCC3(C)C1[C@@H]2C (stereo partly drawn) ?
inactive

Any idea what this test logged for `O=C1c2cccc(O)c2C(=O)c2c(O)cc(CO)cc21` ?
inactive
